Reported ELISA binding mIL-12RB2/control values are given for each entry in this list.
- measured-on: T1, biotinylated recombinant mouse IL-12Rβ2 (mouse, UniProt P97378 24-637, random biotinylated)
- T1 construct: Recombinant protein produced in-house, biotinylated; also called mIL-12RB2; mouse IL-12RB2
- T1 sequence: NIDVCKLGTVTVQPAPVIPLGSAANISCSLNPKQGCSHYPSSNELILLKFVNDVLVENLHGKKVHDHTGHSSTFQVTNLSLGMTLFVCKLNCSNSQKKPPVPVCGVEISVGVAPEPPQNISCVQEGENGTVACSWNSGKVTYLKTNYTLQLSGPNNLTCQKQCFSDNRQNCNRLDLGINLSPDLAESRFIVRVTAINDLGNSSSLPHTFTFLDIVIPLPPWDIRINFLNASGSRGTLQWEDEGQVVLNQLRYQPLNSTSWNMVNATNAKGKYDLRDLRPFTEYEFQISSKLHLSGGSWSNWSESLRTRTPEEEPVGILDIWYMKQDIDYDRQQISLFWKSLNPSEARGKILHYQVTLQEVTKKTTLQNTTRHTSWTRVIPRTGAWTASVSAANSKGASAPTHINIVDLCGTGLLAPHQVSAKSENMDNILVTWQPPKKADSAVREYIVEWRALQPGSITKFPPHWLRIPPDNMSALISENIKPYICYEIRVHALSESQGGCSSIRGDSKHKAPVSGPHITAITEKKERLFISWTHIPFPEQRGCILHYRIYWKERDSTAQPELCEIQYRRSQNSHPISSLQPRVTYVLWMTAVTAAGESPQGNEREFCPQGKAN
- experiment: ELISA, periplasmic extract on biotinylated mIL-12Rβ2, signal over control wells
Write down the numeric answer in ratio and omit the unit.

{"binder": "anti-IL-12Rβ2 VHH clone 20469 (VHH, not shown: small tags and cut ends, tested as periplasmic extract; also called 2CAM8) VHH: QVQLQESGGGLVQPGGSLRLSCAASGRTFSSYGMGWFRQAPGKKREFVAAISRDARITDYADSVKGRFTISRDNAKNTAYLEMNSLNPEDTAVYFCAAAYTYSGSHYVTARSSDYHSWGQGTQVTVSS", "reading": 22}
{"binder": "anti-IL-12Rβ2 VHH clone 20544 (VHH, not shown: small tags and cut ends, tested as periplasmic extract; also called 3CAMS19) VHH: QVQLQESGGGLVQAGGPLRLSCAASGRTFSSYGMGWFRQAPGKERDFVAAISRDARITDYADSVKGRFTISRDNVKNTVYLQMNSLNPEDTAVYFCAAAYTYSGSHYVTARSSDYHSWGQGTQVTVSS", "reading": 9.31}
{"binder": "anti-IL-12Rβ2 VHH clone 20447 (VHH, not shown: small tags and cut ends, tested as periplasmic extract; also called 2CRM39) VHH: QVQLQESGGGLVQPGGSLRLSCAASGFTFRSYAMSWVRQAPGKGLEWVSSISSSGTDTNYADSVKGRLTISRDNVKNTLYLQMNSLKPEDTAVYYCAKASQNYSPPGQGTQVTVSS", "reading": 11.8}

# context switch: different binder, same ELISA binding mIL-12RB2/control
Incoming: Indicate its recorded ELISA binding mIL-12RB2/control; the binder in question is anti-IL-12Rβ2 VHH clone 20539 (VHH, not shown: small tags and cut ends, tested as periplasmic extract; also called 2CAMS87) VHH: QVQLQESGGGLVQAGGSLRLSCAASGRTFSSYGMGWFRQAPGKEREFVAAISRGARNTDYADSVKGRFTISRDNAKNTAFLQMNSLNPEDTAVYFCAAAYTYSGSHYVTARSSDYHTWGQGTQVTVSS
Outgoing: 4.89
